assay: inhibitors of TNFa-induced NFkB p65 translocation, primary screen, imaging, HUVEC, MLSMR starter and 10KST1 sets (AID 438); conditions: HUVEC TNFa-induced p65 nuclear translocation; measured here: nuclei count (cytotoxicity indicator), at 2.08 µM;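 further: compound added about 3h40 before a 20 min TNFalpha stimulation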
Attribute: cell count

Consider the following illustrative entries.
[
  {
    "molecule": "O=S(=O)(Nc1ccc(Cc2ccncc2)cc1)N1CCCC1",
    "observed property": "cell count",
    "endpoint value": 848
  },
  {
    "molecule": "Cc1c(C(=O)Nc2cnccn2)oc2ccccc12",
    "observed property": "cell count",
    "endpoint value": 370
  },
  {
    "molecule": "CC1CCCN(C(=O)C23CCC(C)(C(=O)C2)C3(C)C)C1 (stereo not drawn)",
    "observed property": "cell count",
    "endpoint value": 636
  },
  {
    "molecule": "CC(=O)N1CCN(C(C)=O)C1c1ccccc1",
    "observed property": "cell count",
    "endpoint value": 464
  },
  {
    "molecule": "CCc1ccc(Nc2cc(=O)n(C3CCCCC3)c(=O)[nH]2)cc1",
    "observed property": "cell count",
    "endpoint value": 385
  }
]

In plain terms, CCOC(=O)c1[nH]c(C)c(C(=O)NCC2CCCO2)c1C (stereo not drawn) has a documented cell count of 390

Lab book: cell count of CCCC(NC(=O)c1ccccc1)c1nc2ccccc2n1Cc1ccc(C(=O)OC)o1 (stereo not drawn) noted as 722

----------
molecular target: Alpha-2C adrenergic receptor (Homo sapiens); experiment: compounds altering alpha2C-coupled GIRK flux – cell-based, HEK293 alpha2C/GIRK1/2, thallium flux, primary screen (AID 624); details: thallium flux BTC fluorescence, at 10 µM, actives lie on both sides;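 further: slope of fluorescence ratio to pre-addition baseline per second over 15 to 24 s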
So basically: slope at 0.005 or higher? That is True. Lower than 0.005? That is False.

Worked examples follow.
[
  {
    "molecule": "O=S(=O)(c1ccc(Br)s1)N1CCN(c2ccccc2)CC1",
    "label": "True"
  },
  {
    "molecule": "CCc1nn(CC(=O)N2CCN(Cc3ccc4c(c3)OCO4)CC2)c(=O)c2cc3occc3n12",
    "label": "False"
  },
  {
    "molecule": "Cc1cccc(C2c3c(n(C)c(=O)n(C)c3=O)N=C3c4ccccc4C(=O)C32)c1 (stereo unspecified)",
    "label": "False"
  }
]

Does slope meet or surpass 0.005 for Cn1c(=O)c2c(nc(SCC(=O)NCc3ccco3)n2C)n(C)c1=O ?
True

Determine whether this molecule has slope no lower than 0.005: COC(=O)COc1cccc(NC(=O)COc2ccccc2)c1
True

Has CC12CCC(C(=O)N3CCCCC3)(CC1=O)C2(C)C (stereo unspecified) a recorded slope greater than or equal to 0.005?
True

# bool: slope of CCCCOCCCNC(=O)c1ccccc1OCC >= 0.005
True

Threshold query (slope >= 0.005) on COc1ccc(Cl)cc1Nc1nc(NCCO)nc(N2CCCC2)n1
True

Identify whether the reported slope of the following molecule is 0.005 or greater: Cc1nc2sc(C(c3cccs3)N3CCC(C(N)=O)CC3)c(O)n2n1 (stereo unspecified)
True

----------
target: Voltage-gated potassium channel subunit beta-2 (Rattus norvegicus) (UniProt P62483); assay: inhibitors of rat Kvbeta2 reductase activity – biochemical, NADPH fluorescence, primary screen (AID 622); conditions: recombinant KvBeta, 4-cyanobenzaldehyde reduction, at 10 µM, stronger effect = higher value;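 further: slope of raw intensity against log time taken from 70 to 1610 s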
Sequence (P62483 whole entry, looked up): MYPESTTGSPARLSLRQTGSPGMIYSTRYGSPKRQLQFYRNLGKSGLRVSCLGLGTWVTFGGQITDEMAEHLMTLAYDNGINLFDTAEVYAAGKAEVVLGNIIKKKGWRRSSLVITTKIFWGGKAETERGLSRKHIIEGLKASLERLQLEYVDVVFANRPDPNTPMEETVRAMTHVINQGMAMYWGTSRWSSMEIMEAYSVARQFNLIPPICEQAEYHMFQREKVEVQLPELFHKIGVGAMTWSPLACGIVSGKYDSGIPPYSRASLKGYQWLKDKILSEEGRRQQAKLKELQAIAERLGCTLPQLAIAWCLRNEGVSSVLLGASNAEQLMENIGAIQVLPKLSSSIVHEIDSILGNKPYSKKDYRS
Binary call on fluorescence slope: T from -0.5 upward, F beneath that.

[
  {
    "compound": "O=c1c(CN2CCN(Cc3ccccc3)CC2)coc2ccc(Cl)cc12",
    "tested target": "Voltage-gated potassium channel subunit beta-2 (Rattus norvegicus) (UniProt P62483)",
    "label": "T"
  }
]

Would you say Cc1ccc(N2CC(C)Cn3c2nc2c3c(=O)n(CC(=O)OCc3ccccc3)c(=O)n2C)cc1C (stereo not given) shows fluorescence slope at minimum -0.5?
T

Hello, I need to know if O=C(CSc1nnnn1-c1ccccc1)c1cc2ccccc2oc1=O has measured fluorescence slope not below -0.5. Thanks!
F

# check: fluorescence slope of CCOC(=O)c1cc2sc(C)cc2n1C(C)C(=O)OCC (stereo not given) is greater than or equal to -0.5
F

Decide: is the reported value of fluorescence slope for N=c1c(C(=O)NCc2ccc3c(c2)OCO3)cc2c(=O)n3ccccc3nc2n1Cc1cccnc1 equal to or greater than -0.5?
T

Hello, I need to know if CCOc1ccc2[nH]c(=O)c(CN(Cc3nnnn3CCc3ccccc3)CC3CCCO3)cc2c1 (stereo not given) has measured fluorescence slope not below -0.5. Thanks!
T

fluorescence slope >= -0.5 for CCn1cc(C(=O)NCC2CCCO2)c(=O)c2cc(S(=O)(=O)N(C)C3CCCCC3)ccc21 (stereo not given) ?
F

----------
biological target: Voltage-gated potassium channel subunit beta-2 (Rattus norvegicus) (UniProt P62483); experiment: inhibitors of rat Kvbeta2 reductase activity – biochemical, NADPH fluorescence, primary screen (AID 622); conditions: recombinant KvBeta, 4-cyanobenzaldehyde reduction, at 10 µM, stronger effect = higher value;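 further: slope of raw intensity against log time taken from 70 to 1610 s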
Threshold rule: fluorescence slope greater than or equal to -0.5 is class 1; below that, class 0.

Observe how each entry below is paired with its result.
[
  {
    "compound": "CC1CC(C)CN(CCCNC(=O)c2ccc3c(c2)NC(=O)C(N2CCCCC2)S3)C1 (stereo not given)",
    "label": "class 1"
  },
  {
    "compound": "O=C(NCC(c1cccnc1)N1CCN(c2ccc(F)cc2)CC1)c1ccc(F)cc1 (stereo not given)",
    "label": "class 0"
  },
  {
    "compound": "CCCCOc1ccc(N(CC(=O)NC2CCCC2)C(=O)CCC(=O)Nc2ccccn2)cc1",
    "label": "class 1"
  },
  {
    "compound": "COc1ccc(OC)c(S(=O)(=O)N2CCC(C(=O)NCC3CCCO3)CC2)c1 (stereo not given)",
    "label": "class 1"
  },
  {
    "compound": "COc1ccccc1-n1c(=O)[nH]c2c(C(N)=O)nc(-c3cccnc3)nc21",
    "label": "class 0"
  }
]

In the following, a different compound is considered.
Check if fluorescence slope >= -0.5 (inclusive). Item: COC(=O)c1sccc1NC(=O)c1csc(C)c1
class 1

----------
test: inhibitors of TNFa-induced NFkB p65 translocation, primary screen, imaging, HUVEC, MLSMR starter and 10KST1 sets (AID 438); settings: HUVEC TNFa-induced p65 nuclear translocation; measured here: nuclei count (cytotoxicity indicator), at 2.08 µM;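 further: compound added about 3h40 before a 20 min TNFalpha stimulation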
We use 400 as the dividing line for cell count: on or above the line is true, below is false.

Reference set (4 entries):
[
  {
    "compound": "C/C(=C\\c1ccco1)C1C(C#N)=C(N)OC2=C1C(=O)CC(C)(C)C2 (stereo unspecified)",
    "label": "true"
  },
  {
    "compound": "O=C(COC(=O)CCC(=O)c1cccs1)NCc1ccco1",
    "label": "true"
  },
  {
    "compound": "CN(Cc1ccccc1)Cc1nc2c(c(=O)n(C)c(=O)n2C)n1Cc1ccc(Cl)cc1",
    "label": "false"
  },
  {
    "compound": "Cc1csc(NC(=O)CCCSc2nc3ccccc3s2)n1",
    "label": "false"
  }
]

Test whether the compound O=C1CCn2nc(-c3ccc(Cl)cc3)cc2N1 records cell count of 400 or higher.
true

----------
target: Alpha-2C adrenergic receptor (Homo sapiens) (UniProt P18825); experiment: compounds altering alpha2C-coupled GIRK flux – cell-based, HEK293 alpha2C/GIRK1/2, thallium flux, primary screen (AID 624); details: thallium flux BTC fluorescence, at 10 µM, actives lie on both sides;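 further: slope of fluorescence ratio to pre-addition baseline per second over 15 to 24 s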
Sequence (P18825 whole entry, looked up): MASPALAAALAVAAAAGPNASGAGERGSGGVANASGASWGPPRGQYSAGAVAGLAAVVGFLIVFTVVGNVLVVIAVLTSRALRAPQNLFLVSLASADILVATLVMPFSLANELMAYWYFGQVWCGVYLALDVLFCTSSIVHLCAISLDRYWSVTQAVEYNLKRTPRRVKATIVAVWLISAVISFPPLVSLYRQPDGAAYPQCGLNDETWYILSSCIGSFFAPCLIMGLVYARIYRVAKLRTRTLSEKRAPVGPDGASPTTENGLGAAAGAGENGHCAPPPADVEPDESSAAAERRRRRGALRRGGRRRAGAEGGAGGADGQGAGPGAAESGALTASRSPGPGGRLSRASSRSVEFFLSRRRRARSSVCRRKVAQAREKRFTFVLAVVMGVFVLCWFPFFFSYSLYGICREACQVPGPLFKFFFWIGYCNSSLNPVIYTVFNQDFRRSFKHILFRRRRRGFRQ
Active and inactive are the calls of the source.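 The calls were made as follows: active = fluorescence slope after compound addition differing from the mean of all screened samples at 99.7% confidence, in either direction; inactive = the rest.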
A correct response names exactly one class from active, inactive

[
  {
    "compound": "O=C(c1ccc(Cl)c(F)c1F)N1CCCC1",
    "label": "inactive"
  },
  {
    "compound": "O=S(=O)(c1ccc2c(c1)OCCO2)N1CCN(Cc2ccc3c(c2)OCO3)CC1",
    "label": "inactive"
  }
]

Write down the call the test reported for this compound. Item: CSCCC(N=CC1=C(O)CC(C)(C)CC1=O)C(=O)O (stereo not given)
inactive

Would you mind telling me which call this test gave Cc1ccc(N(CC(=O)NCC2CCCO2)S(C)(=O)=O)cc1Cl (stereo not given) ?
inactive

# lookup: test call for O=C(CN(C(=O)CCNC(=O)c1ccco1)c1ccccc1)NC1CCCC1
inactive

Short answer needed: outcome of this test for Cc1ccc(NC(=O)C2CCCN(S(=O)(=O)c3cnc[nH]3)C2)cc1F (stereo not given) ?
inactive

Would you mind telling me which call this test gave Cc1cc(C)n(CCc2nc(-c3cccs3)cs2)n1 ?
inactive

I would be grateful if you could indicate the recorded call for O=C(Cn1ncc2c(=O)oc3ccccc3c21)NCCCN1CCCC1=O .
inactive

Give the logged outcome of this assay for the following compound: NCCN1CCN(CCN)CC1
inactive

Kindly provide the recorded test outcome for the following compound: CCCCOC(=O)n1c(SCC(=O)N(CC)CC)nc2ccccc21
inactive

Called result for CC(C)Cn1c(N)c(C(=O)NCCN2CCOCC2)c2nc3ccccc3nc21
inactive

Hi, do you know how CCCc1c(O)nc(SCC(=O)NCCc2ccc(OC)c(OC)c2)[nH]c1=O came out in this test?
inactive
